Biological target: T1, V domain of human CD33 (human, UniProt P20138 18-139, limits assumed)
T1 construct: recombinant, fully glycosylated V domain; also called Human CD33 V domain
Test: SPR, Fab captured, 37C;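 further: Anti-CD33 Fabs captured on anti-Fab chip, soluble monomeric CD33 or its domains flowed over at several concentrations, double-referenced data fitted 1:1, Kd taken as koff/kon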
result.type: koff (s⁻¹)
Lab book: enter the figure in s⁻¹, no units written.

Guide cases for koff, answers given:
ADI-10158 Fab (Fab, V domains shown, Fab fragment; also called Ab14) VH: QVQLQQWGAGLLKPSETLSLTCAVYGGSFSGYYWSWIRQPPGKGLEWIGEIDHSGSTNYNPSLKSRVTISVDTSKNQFSLKLSSVTAADTAVYYCARQGIHGLRYFDLWGRGTLVTVSS VL: EIVMTQSPATLSLSPGERATLSCRASQSVSSYLAWYQQKPGQAPRLLIYDASNRATGIPARFSGSGSGTDFTLTISSLEPEDFAVYYCQQDHNFPYTFGGGTKVEIK | 0.133
ADI-10157 Fab (Fab, V domains shown, Fab fragment; also called Ab13) VH: QVQLQESGPGLVKPSETLSLTCTVSGGSISSYYWSWIRQPPGKGLEWIGSIYYSGSTNYNPSLKSRVTISVDTSKNQFSLKLSSVTAADTAVYYCARVGGVYSTIETYGMDVWGQGTTVTVSS VL: EIVMTQSPATLSVSPGERATLSCRASQSVSSNLAWYQQKPGQAPRLLIYGASTRATGIPARFSGSGSGTEFTLTISSLQSEDFAVYYCQQYTVYPPTFGGGTKVEIK | 0.0151
ADI-11825 Fab (Fab, V domains shown, Fab fragment; also called Ab25) VH: EVQLVESGGGLVQPGGSLRLSCAASGFTFGGYWMSWVRQAPGKGLEWVANINQDGSEEYYVDSVKGRFTISRDNAKNSLYLQMNSLRAEDTAVYYCAREANYYGNVGDDYWGQGTLVTVSS VL: DIQMTQSPSSLSASVGDRVTITCRASQSIYNYLNWYQQKPGKAPKLLIYAASNLHSGVPSRFSGSGSGTDFTLTISSLQPEDFATYYCQQAFHVPITFGGGTKVEIK | 0.0195

Challenge: Requested read-out: koff. Entry: ADI-11828 Fab (Fab, V domains shown, Fab fragment; also called Ab27) VH: EVQLVESGGGLVQPGGSLRLSCAASGFTFSSYWMSWVRQAPGKGLEWVANINQDGSEVYYVDSVKGRFTISRDNAKNSLYLQMNSLRAEDTAVYYCARDVGPGIAYQGHFDYWGQGTLVTVSS VL: DIQMTQSPSSLSASVGDRVTITCRASQSIYYYLNWYQQKPGKAPKLLIYAASSRQSGVPSRFSGSGSGTDFTLTISSLQPEDFATYYCQQVYDTPLTFGGGTKVEIK
Response given: 0.0213
